Assay: Antiproliferative activity against human HBL100 cells assessed as growth inhibition after 48 hrs by SRB assay
Format: functional
Conditions: HBL-100, 48 h
In this section, each of the molecules is paired with its reported log10(GI50).
assay.readout: log10(GI50) (log10 of the value in µM)

> print(dat)
                                   structure  assay.readout  reported.measurement
 1  COC(=O)[C@@]1(C)CCC=C2[C@@H]1CC[C@@H](C)[C@]2(C)Cc1c(C)[nH]c2c(Br)cccc12    log10(GI50)                  1.43
 2  COC(=O)[C@@]1(C)CCC=C2[C@@H]1CC[C@@H](C)[C@]2(C)Cc1c(C)[nH]c2ccccc12    log10(GI50)                  1.15
 3  COC(=O)[C@@]1(C)CC[C@@H]2C3=C1CC[C@@H](C)[C@]3(C)C[C@@H]1c3ccccc3N[C@H]21    log10(GI50)                  1.89
 4  COC(=O)[C@@]1(C)CC[C@@H]2C3=C1CC[C@@H](C)[C@]3(C)C[C@@H]1c3cc(C)ccc3N[C@H]21    log10(GI50)                  1.18
 5  COC(=O)[C@@]1(C)CCC=C2[C@@H]1CC[C@@H](C)[C@]2(C)Cc1c[nH]c2ccc(F)cc12    log10(GI50)                  0.68
 6  COC(=O)[C@@]1(C)CC[C@@H]2C3=C1CC[C@@H](C)[C@]3(C)Cc1c2[nH]c2c(C)cccc12    log10(GI50)                  1.11
 7  COC(=O)[C@@]1(C)CCC=C2[C@@H]1CC[C@@H](C)[C@]2(C)Cc1c(C)[nH]c2ccc(C)cc12    log10(GI50)                  1.40
 8  COC(=O)[C@@]1(C)CC[C@@H]2C3=C1CC[C@@H](C)[C@]3(C)C[C@@H]1c3cccc(C)c3N[C@H]21    log10(GI50)                  1.51
 9  COC(=O)[C@@]1(C)CCC=C2[C@@H]1CC[C@@H](C)[C@]2(C)Cc1c(C)[nH]c2c(C)cccc12    log10(GI50)                  1.20
10  COC(=O)[C@@]1(C)CCC=C2[C@@H]1CC[C@@H](C)[C@]2(C)Cc1c[nH]c2ccc(C)cc12    log10(GI50)                  1.26
11  COC(=O)[C@@]1(C)CCC=C2[C@@H]1CC[C@@H](C)[C@]2(C)Cc1c[nH]c2ccc(OC)cc12    log10(GI50)                  0.32
12  COC(=O)[C@@]1(C)CCC=C2[C@@H]1CC[C@@H](C)[C@]2(C)Cc1c[nH]c2c(C)cccc12    log10(GI50)                  0.90
13  COC(=O)[C@@]1(C)CCC=C2[C@@H]1CC[C@@H](C)[C@]2(C)Cc1c[nH]c2ccc(C(F)(F)F)cc12    log10(GI50)                  1.18
14  COC(=O)[C@@]1(C)CCC=C2[C@@H]1CC[C@@H](C)[C@]2(C)Cc1c[nH]c2ccc(Br)cc12    log10(GI50)                  1.20
15  COC(=O)[C@@]1(C)CC[C@@H]2C3=C1CC[C@@H](C)[C@]3(C)Cc1c2[nH]c2c(Cl)cccc12    log10(GI50)                  1.20
16  COC(=O)[C@@]1(C)CC[C@@H]2C3=C1CC[C@@H](C)[C@]3(C)Cc1c2[nH]c2ccc(Br)cc12    log10(GI50)                  1.20
